assayed system: T1, huNav1.7α+β1 (human, UniProt Q15858 1-1988; Q07699 19-218)
T1 construct: also called huNav1.7-beta1; HEKa/β1
test: binding FACS, HEKa/β1 cells
measurement label: Bmax relative to '535 (%)

[[record]]
binder = "F010301099 (VHH, vs F0103265A11: Y56W, T57V, N58T) VHH: EVQLVESGGGLVQPGGSLRLSCAASGMLFNANTQGWYRQAPGKQRELVAFIFSGGWVTYVDSVKGRFTISRDNAKRTMYLQMNSLKPEDSAIYYCSLSRYLGQGTLVTVSS"
number = 87

[[record]]
binder = "F010301113 (VHH, vs F0103265A11: A31R, V60N, R101V, L103Q) VHH: EVQLVESGGGLVQPGGSLRLSCAASGMLFNRNTQGWYRQAPGKQRELVAFIFSGGYTNYNDSVKGRFTISRDNAKRTMYLQMNSLKPEDSAIYYCSLSVYQGQGTLVTVSS"
number = 111

[[record]]
binder = "F010301138 (VHH, vs F0103265A11: N30Y, V60N, S93A, L103Q) VHH: EVQLVESGGGLVQPGGSLRLSCAASGMLFYANTQGWYRQAPGKQRELVAFIFSGGYTNYNDSVKGRFTISRDNAKRTMYLQMNSLKPEDSAIYYCALSRYQGQGTLVTVSS"
number = 107

[[record]]
binder = "F010301175 (VHH, vs F0103265A11: A31R, N58T) VHH: EVQLVESGGGLVQPGGSLRLSCAASGMLFNRNTQGWYRQAPGKQRELVAFIFSGGYTTYVDSVKGRFTISRDNAKRTMYLQMNSLKPEDSAIYYCSLSRYLGQGTLVTVSS"
number = 111

